Cited source: patent US20220211692A1

molecular target: F508delCFTR (Homo sapiens, UniProt P13569, DEL508-508); construct: expressed in transfected cells; host or cells: CFBE41o- human lung derived epithelial cell line, doxycycline-induced expression; experiment: Cell Surface Expression-Horse Radish Peroxidase (CSE-HRP) assay in CFBE41o-F508delCFTR-HRP cells; format: cell-based; conditions: with co-corrector 2 μM; normalized to on-plate positive control
Sequence (P13569 with tags, fused parts or gaps DEL508-508): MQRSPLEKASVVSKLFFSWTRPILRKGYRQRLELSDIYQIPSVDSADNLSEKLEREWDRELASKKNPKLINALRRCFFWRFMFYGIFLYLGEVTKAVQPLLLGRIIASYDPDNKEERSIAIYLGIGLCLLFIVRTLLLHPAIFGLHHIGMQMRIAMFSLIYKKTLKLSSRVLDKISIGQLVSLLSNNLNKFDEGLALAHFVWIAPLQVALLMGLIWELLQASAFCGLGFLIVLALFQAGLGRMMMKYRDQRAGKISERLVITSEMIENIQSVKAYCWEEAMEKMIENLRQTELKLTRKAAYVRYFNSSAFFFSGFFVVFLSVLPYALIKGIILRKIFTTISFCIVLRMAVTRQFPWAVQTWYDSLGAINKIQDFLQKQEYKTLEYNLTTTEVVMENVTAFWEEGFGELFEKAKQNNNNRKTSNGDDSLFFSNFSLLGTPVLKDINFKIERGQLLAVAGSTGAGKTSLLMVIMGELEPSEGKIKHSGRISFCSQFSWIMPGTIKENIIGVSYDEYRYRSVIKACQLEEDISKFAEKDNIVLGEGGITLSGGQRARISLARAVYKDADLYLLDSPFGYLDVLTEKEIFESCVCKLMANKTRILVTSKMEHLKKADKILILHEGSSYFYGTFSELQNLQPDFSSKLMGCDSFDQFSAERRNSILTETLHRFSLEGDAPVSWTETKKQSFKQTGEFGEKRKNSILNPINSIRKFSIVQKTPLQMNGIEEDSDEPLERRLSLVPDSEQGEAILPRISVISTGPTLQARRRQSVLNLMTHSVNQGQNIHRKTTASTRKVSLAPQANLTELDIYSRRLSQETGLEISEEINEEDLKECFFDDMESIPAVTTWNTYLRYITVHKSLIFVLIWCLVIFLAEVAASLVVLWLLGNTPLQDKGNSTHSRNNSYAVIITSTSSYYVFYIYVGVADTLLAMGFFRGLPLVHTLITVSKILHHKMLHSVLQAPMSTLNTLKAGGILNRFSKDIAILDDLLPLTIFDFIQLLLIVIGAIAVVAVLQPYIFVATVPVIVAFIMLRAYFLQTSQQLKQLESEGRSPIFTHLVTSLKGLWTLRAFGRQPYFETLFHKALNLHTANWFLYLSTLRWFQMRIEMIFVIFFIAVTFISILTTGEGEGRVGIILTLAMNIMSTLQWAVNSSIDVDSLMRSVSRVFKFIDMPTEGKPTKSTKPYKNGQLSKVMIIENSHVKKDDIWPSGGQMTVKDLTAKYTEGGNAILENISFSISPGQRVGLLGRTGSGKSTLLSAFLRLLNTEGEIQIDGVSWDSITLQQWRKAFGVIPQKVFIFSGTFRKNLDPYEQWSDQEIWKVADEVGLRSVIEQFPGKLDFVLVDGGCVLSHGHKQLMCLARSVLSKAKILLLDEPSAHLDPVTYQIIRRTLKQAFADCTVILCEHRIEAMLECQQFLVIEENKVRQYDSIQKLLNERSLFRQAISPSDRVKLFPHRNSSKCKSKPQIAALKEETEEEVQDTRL
QUANTITY NAME: Maximum % activity (with co-corrector) (%)
All answers are understood in %, so give the number only.

Consider the following illustrative entries.
{"SMILES STR": "CCc1ccc(Oc2ccccc2)c([C@]2(C(=O)NS(=O)(=O)c3cccc4nc(C)ccc34)CCCO2)c1", "Maximum % activity (with co-corrector) [%]": 673}
{"SMILES STR": "COc1ccc([C@H]2CO[C@@](C(=O)NS(=O)(=O)c3cccc4nc(C)ccc34)(c3cc(C)ccc3OC)C2)cc1", "Maximum % activity (with co-corrector) [%]": 911}
{"SMILES STR": "CCc1ccc(Oc2cccnc2OC)c([C@@]2(C(=O)NS(=O)(=O)c3cccc4nc(C)ccc34)CCCO2)c1", "Maximum % activity (with co-corrector) [%]": 954}

Lab book: Maximum % activity (with co-corrector) of COc1ccc(C)cc1[C@@]1(C(=O)NS(=O)(=O)c2cccc3nc(C)ccc23)C[C@H](OC)CO1 noted as 513

Note to self: Maximum % activity (with co-corrector) recorded for COc1ccc(C)cc1[C@@]1(C(=O)NS(=O)(=O)c2cccc3nc(C)ccc23)C[C@H](C)CO1 was 862
